These entries and their values trace back to ChEMBL document CHEMBL1131477.

- target-under-test: Progesterone receptor (Homo sapiens, UniProt P06401)
- Sequence (P06401 whole entry): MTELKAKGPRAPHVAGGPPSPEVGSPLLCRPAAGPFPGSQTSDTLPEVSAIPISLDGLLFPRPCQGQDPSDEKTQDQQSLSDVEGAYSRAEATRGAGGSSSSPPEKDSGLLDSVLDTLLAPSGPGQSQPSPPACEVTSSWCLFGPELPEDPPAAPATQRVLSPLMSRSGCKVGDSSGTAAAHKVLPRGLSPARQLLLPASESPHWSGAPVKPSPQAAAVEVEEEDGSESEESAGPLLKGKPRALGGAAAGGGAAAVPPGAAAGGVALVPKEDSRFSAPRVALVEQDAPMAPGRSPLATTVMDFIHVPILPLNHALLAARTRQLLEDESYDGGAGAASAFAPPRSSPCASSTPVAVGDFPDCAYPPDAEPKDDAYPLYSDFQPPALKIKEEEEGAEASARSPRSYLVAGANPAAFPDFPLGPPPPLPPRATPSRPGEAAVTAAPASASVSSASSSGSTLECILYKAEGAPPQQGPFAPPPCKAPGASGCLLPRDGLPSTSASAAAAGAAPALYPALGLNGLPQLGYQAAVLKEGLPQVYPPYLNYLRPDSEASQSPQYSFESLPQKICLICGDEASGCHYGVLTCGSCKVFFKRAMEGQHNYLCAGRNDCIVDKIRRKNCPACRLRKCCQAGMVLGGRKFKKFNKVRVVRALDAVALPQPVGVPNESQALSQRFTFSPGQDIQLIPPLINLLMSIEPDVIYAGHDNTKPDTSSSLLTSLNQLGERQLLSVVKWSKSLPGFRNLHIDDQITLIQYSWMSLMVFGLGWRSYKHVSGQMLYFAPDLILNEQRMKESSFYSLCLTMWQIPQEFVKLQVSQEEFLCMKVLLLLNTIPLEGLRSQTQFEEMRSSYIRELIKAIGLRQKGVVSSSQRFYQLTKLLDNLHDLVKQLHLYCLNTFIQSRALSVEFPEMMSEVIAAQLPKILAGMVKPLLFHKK
- assay-notes: Antagonistic activity against human progesterone receptor B (hPR-B) in co-transfected CV-1 cells.
measured-quantity: pIC50
Would you please state pIC50, meaning minus log10 of the concentration in mol/L, as a bare number?

Look up and state reported pIC50 for CCC1(C)CCc2cc3c(C(F)(F)F)cc(=O)n(C)c3cc2N1C (stereo not drawn)
5.96

Return pIC50 for the following compound: CC1Cc2cc3c(C(F)(F)F)cc(=O)[nH]c3cc2NC1(C)C (stereo not drawn)
6.46

Name the recorded pIC50 of the compound listed here: CC1c2cc3c(C(F)(F)F)cc(O)nc3cc2NC(C)(C)C1(C)C (stereo not drawn)
6.44

Consider the compound `CC1=CC(C)(C)Nc2c1cc1c(C(F)(F)F)cc(=O)n(C)c1c2C` . State its measured pIC50.
5.36

Dear colleague, please send me the reported pIC50 for `CN1c2cc3c(cc2CCC1(C)C)c(C(F)(F)F)cc(=O)n3C` when you can.
5.66

Return pIC50 for the following compound: `C[C@H]1c2cc3c(C(F)(F)F)cc(O)nc3cc2NC(C)(C)[C@H]1C`
6.51

Input `CC1=CC(C)(C)Nc2cc3[nH]c(=O)cc(C(F)(F)F)c3cc21` , output reported pIC50.
7.31

Quick one: give measured pIC50 for CC1CC(C)(C)Nc2cc3c(cc21)c(C(F)(F)F)cc(=O)n3C (stereo not drawn)
6.23

For the compound `CC1=CC(C)(C)Nc2cc3[nH]c(=O)cc(C)c3cc21` , give its reported pIC50.
6.96

Consider the compound Cn1c(=O)cc(C(F)(F)F)c2cc3c(cc21)N1CCCC1(C)CC3 (stereo not drawn) and give its recorded pIC50.
6.40

Report pIC50, nothing else, for this compound: `CC1(C)C=Cc2cc3c(C(F)(F)F)cc(O)nc3cc2N1`
6.41

Complete the entry with pIC50 for `C[C@@H]1c2cc3c(C(F)(F)F)cc(O)nc3cc2NC(C)(C)[C@H]1C`
6.13

Please report pIC50 for the following compound: CCC1Cc2cc3c(C(F)(F)F)cc(=O)[nH]c3cc2NC1(C)C (stereo not drawn)
5.63

For the compound CCC1CC(C)(C)Nc2cc3nc(O)cc(C(F)(F)F)c3cc21 (stereo not drawn) , give its measured pIC50 value.
6.56

Give pIC50 for `CC1=C(C)C(C)(C)Nc2cc3[nH]c(=O)cc(C(F)(F)F)c3cc21`
6.41

Specify measured pIC50 for Cc1c2c(cc3c(C(F)(F)F)cc(=O)[nH]c13)C(C)CC(C)(C)N2 (stereo not drawn) .
5.43

Query pIC50 for `CC1(C)Cc2cc3c(C(F)(F)F)cc(=O)[nH]c3cc2NC1(C)C`
6.06

Write down pIC50 measured for item CCC1(C)CCc2cc3c(C(F)(F)F)cc(=O)n(C)c3cc2N1 (stereo not drawn)
5.48

Give the reported value of pIC50 for this record: CCC1(C)CCc2cc3c(C(F)(F)F)cc(=O)[nH]c3cc2N1 (stereo not drawn)
6.27

Could you please provide reported pIC50 for `CC1=CC(C)(C)N(C)c2cc3c(cc21)c(C(F)(F)F)cc(=O)n3C` ? Thanks!
6.87

Write down pIC50 measured for item CCCC1(C)CCc2cc3c(C(F)(F)F)cc(=O)[nH]c3cc2N1 (stereo not drawn)
5.94

Fill in pIC50 for record CC(C)C1CC(C)(C)Nc2cc3nc(O)cc(C(F)(F)F)c3cc21 (stereo not drawn)
5.50
